Can you tell me Pro for the items I'm about to list?
Test system: HS-68 and NIH 3T3 cell lines
Assay: Protein delivery by vector peptides (GFP)
Assay type: cell-based
Conditions: transfection of GFP; incubated with peptide at a molar ratio of 1:20; 1 h
Experimental: We evaluated the ability of peptides designed according to principles described herein, as well as variants thereof, to deliver peptides and proteins into HS-68 and NIH 3T3 cell lines. Peptide delivery was performed with a 32 mer peptide (peptide B), and in some cases a […] peptide (peptide A). The peptides were fluorescently labeled. […] Then cells were extensively washed, fixed and analyzed by fluorescence microscopy. […]
*1 amine or outer side, *2 acyl side, *3 side chain or, on linkers, in order; H or OH if unused. Where no end group is shown, it is not given here. Cysteamide = C(CS[*:3])N[*:1]
Write down the numeric answer in % and omit the unit.

Which Pro is reported for this substance? Lys Trp Trp Glu Thr Trp Trp Glu Thr Trp Ser Gln Pro Lys Lys Lys Arg Lys Val (Ac-KWWETWWETWSQPKKKRKV-Cysteamide) [Pep-2.5-cya]
5

I would be grateful if you could share the reported Pro for KETWWETWWTEWSQPKKRKV [Pep-2.1-cya] .
70

Which Pro is reported for this substance? Lys Glu Thr Trp Trp Glu Thr Trp Trp Thr Glu Ala Ser Gln Pro Lys Lys Arg Lys Val (Ac-KETWWETWWTEASQPKKRKV-Cysteamide) [Pep-2.2-cya]
30
